protocol_text: HepG2 cytotoxicity, Neutral Red Uptake
Assay type: cell-based, Human
condition_description: human, HepG2 cells; Doxorubicin 2.4 µM, 24 h; read-out: Percentage of viable HepG2 cells
measured_quantity: viability at 24 h, 2.4 µM (%)
Numbers only, in %.

Ask: Given the compound COc1cccc2c1C(=O)c1c(O)c3c(c(O)c1C2=O)C[C@@](O)(C(=O)CO)C[C@@H]3O[C@H]1C[C@H](N)[C@H](O)[C@H](C)O1 , write its reported viability at 24 h, 2.4 µM.
Reply: 38.4

----------
protocol_text: HepG2 cytotoxicity, Neutral Red Uptake
Type: cell-based, Human
condition_description: human, HepG2 cells; Doxorubicin 1.2 µM, 24 h; read-out: Percentage of viable HepG2 cells
measured_quantity: viability at 24 h, 1.2 µM

Ask: Given the compound COc1cccc2c1C(=O)c1c(O)c3c(c(O)c1C2=O)C[C@@](O)(C(=O)CO)C[C@@H]3O[C@H]1C[C@H](N)[C@H](O)[C@H](C)O1 , write its reported viability at 24 h, 1.2 µM.
Reply: 65%
